Cited source: ChEMBL document CHEMBL1145480

Below is a list of entries, each paired with its recorded MIC value.
- Test system: Haemophilus influenzae
- assay_details: Antibacterial activity against Haemophilus influenzae MSC06647 by broth microdilution method
- Format: functional
Please state the figure in µg/mL; there is no need to write the unit.

Solved cases below.
[[record]]
entry_smiles = "C=CC1=C(C(=O)O)N2C(=O)[C@@H](NC(=O)/C(=N\\O)c3csc(N)n3)[C@H]2SC1"
value_type = "MIC"
endpoint_result = 1

[[record]]
entry_smiles = "CC1(C)S[C@@H]2[C@H](NC(=O)[C@H](N)c3ccccc3)C(=O)N2[C@H]1C(=O)O"
value_type = "MIC"
endpoint_result = 2


For `C[C@@H]1O[C@@H]1P(=O)(O)O` on Haemophilus influenzae, measured MIC was 0.12

For `CO[C@H]1/C=C/O[C@@]2(C)Oc3c(C)c(O)c4c(O)c(c(/C=N/N5CCN(C)CC5)c(O)c4c3C2=O)NC(=O)/C(C)=C\C=C\[C@H](C)[C@H](O)[C@@H](C)[C@@H](O)[C@@H](C)[C@H](OC(C)=O)[C@@H]1C` on Haemophilus influenzae, measured MIC was 0.25

====

- Tested on: Haemophilus influenzae
- assay_details: Antibacterial activity against Haemophilus influenzae MSC06663 by broth microdilution method
- Type: functional
value_type: MIC (µg/mL)
Please state the figure in µg/mL; there is no need to write the unit.

Solved cases below.
[[record]]
entry_smiles = "CC1(C)S[C@@H]2[C@H](NC(=O)[C@H](N)c3ccccc3)C(=O)N2[C@H]1C(=O)O"
value_type = "MIC"
endpoint_result = 1

[[record]]
entry_smiles = "CO[C@H]1/C=C/O[C@@]2(C)Oc3c(C)c(O)c4c(O)c(c(/C=N/N5CCN(C)CC5)c(O)c4c3C2=O)NC(=O)/C(C)=C\\C=C\\[C@H](C)[C@H](O)[C@@H](C)[C@@H](O)[C@@H](C)[C@H](OC(C)=O)[C@@H]1C"
value_type = "MIC"
endpoint_result = 0.5


Per the records, this compound ( `C[C@@H]1O[C@@H]1P(=O)(O)O` ) has MIC equal to 0.06

Per the records, this compound ( `C=CC1=C(C(=O)O)N2C(=O)[C@@H](NC(=O)/C(=N\O)c3csc(N)n3)[C@H]2SC1` ) has MIC equal to 2

====

- Test system: Haemophilus influenzae
- assay_details: Antibacterial activity against rifampin-resistant Haemophilus influenzae RdRIF by broth microdilution method
- Format: functional
Below is a list of entries, each paired with its recorded MIC value.
Please state the figure in µg/mL; there is no need to write the unit.

Solved cases below.
[[record]]
entry_smiles = "CC1(C)S[C@@H]2[C@H](NC(=O)[C@H](N)c3ccccc3)C(=O)N2[C@H]1C(=O)O"
target_of_assay = "Haemophilus influenzae"
endpoint_result = 0.25

[[record]]
entry_smiles = "C[C@@H]1O[C@@H]1P(=O)(O)O"
target_of_assay = "Haemophilus influenzae"
endpoint_result = 2


For `C=CC1=C(C(=O)O)N2C(=O)[C@@H](NC(=O)/C(=N\O)c3csc(N)n3)[C@H]2SC1` on Haemophilus influenzae, measured MIC was 0.25
